- system: BRD4 BD1 (Homo sapiens, UniProt O60885)
- test_protocol: AlphaScreen binding assay, BRD4 Bromodomain 1
pIC50: −log10 of the molar value.
Reported values of pIC50 for individual entries

Below, 6 compounds whose answers are already recorded.
| structure_notation | pIC50 |
| --- | --- |
| CCS(=O)(=O)c1ccc(-c2ccc3c(c2)N(C(=O)C2CCC2)C[C@H](C)N3C(C)=O)cc1 | 5.00 to 6.00 |
| COC(=O)N1c2ccc(-c3cnn(CC(=O)N(C)C4CC4)c3)cc2N(C(=O)OC(C)C)C[C@@H]1C | 6.00 to 7.00 |
| CC(=O)N1c2ccc(-c3cc(Cl)cc(S(C)(=O)=O)c3)cc2N(C(=O)C2CCC2)C[C@@H]1C | 5.00 to 6.00 |
| CCCCOC(=O)N1C[C@H](C)N(C(C)=O)c2ccc(-c3ccc(S(C)(=O)=O)cc3)cc21 | 6.00 to 7.00 |
| COC(=O)N1c2ccc(-c3cnn(CC#N)c3)cc2N(C(=O)OC(C)C)C[C@@H]1C | 5.00 to 6.00 |
| CC(=O)N1c2ccc(-c3ccc(N4CCCS4(=O)=O)cc3)cc2N(C(=O)c2ccco2)C[C@@H]1C | 6.00 to 7.00 |

# evaluate next
# get_value(readout='pIC50', item= CC(=O)N1c2ccc(-c3cnn(Cc4cccnc4)c3)cc2N(C(=O)OC(C)C)C[C@@H]1C )
6.00 to 7.00

====

- system: BRD4 BD2 (Homo sapiens, UniProt O60885)
- test_protocol: AlphaScreen binding assay, BRD4 Bromodomain 2
outcome_measure: IC50

| compound | system | outcome_measure | result |
| --- | --- | --- | --- |
| CC(=O)N1c2ccc(-c3cn(C)cn3)cc2N(C(=O)c2ccco2)C[C@@H]1C [Example I-401] | BRD4 BD2 (Homo sapiens, UniProt O60885) | IC50 | < 0.05 µM |
| CC(=O)N1c2ccc(Nc3ccccc3)cc2N(C(=O)c2ccco2)C[C@@H]1C [Example I-991] | BRD4 BD2 (Homo sapiens, UniProt O60885) | IC50 | 0.05 to 0.5 µM |
| CC(=O)N1c2ccc(-c3cc(Cl)cc(S(C)(=O)=O)c3)cc2N(C(=O)OC(C)C)C[C@@H]1C [Example I-1097] | BRD4 BD2 (Homo sapiens, UniProt O60885) | IC50 | > 0.5 µM |

If you can, please state the reported IC50 value of CC(=O)N1c2ccc(-c3cnn(C4CC4)c3)cc2N(C(=O)Oc2cccc3ncccc23)C[C@@H]1C [Example I-1191] .
< 0.05 µM

====

Quick list: IC50 per entry.
- system: BRD4 BD2 (Homo sapiens, UniProt O60885)
- test_protocol: AlphaScreen binding assay, BRD4 Bromodomain 2

| structure_notation | result |
| --- | --- |
| CC(C)OC(=O)N1C[C@H](C)N(C(=O)C2CC2)c2ccc(-c3cnn(CC4CCS(=O)(=O)CC4)c3)cc21 | 50 to 500 nM |

Quick one: IC50 of COc1cccc(OC(=O)N2C[C@H](C)N(C(C)=O)c3ccc(-c4cnn(C5CC5)c4)cc32)c1 ?
50 to 500 nM

Record request: IC50 value, item CC(=O)N1c2ccc(-c3ccc(S(C)(=O)=O)cc3)cc2N(C(=O)OC(C)C)C[C@@H]1C
< 50 nM

Returns the measured IC50 for the input compound. Input: CC(=O)N1c2ccc(-c3ccc(S(C)(=O)=O)cc3)cc2N(C=O)C[C@@H]1C
> 500 nM

Bench note: what IC50 did CC(=O)N1c2ccc(-c3cn(C)nc3C)cc2N(C(=O)OC(C)C)C[C@@H]1C show?
50 to 500 nM
